# PROTOCOL SUMMARY: Effect on doubling of human clotting time assay expressed as Activated partial thromboplastin time value (APTT)
# Assay type: functional
Hi there, I'd appreciate the recorded log10 APTT for every entry that follows.
The base-10 logarithm of APTT, taken with APTT in µM, is what appears here.

Using the record for `O=C([C@H](Cc1ccc2c(c1)OCO2)NS(=O)(=O)c1cnccc1N[C@H](CO)Cc1ccccc1)N1CCC(CCF)CC1` , report its log10 APTT. 0.81

State the recorded log10 APTT for this entry: `O=C([C@H](Cc1ccccc1)NS(=O)(=O)c1cnccc1N[C@H](CO)Cc1ccccc1)N1CCC(CCF)CC1` 1.04

Requested field: log10 APTT. Item: `CNc1ccc([C@H](NS(=O)(=O)c2cnccc2N[C@H](CO)Cc2ccccc2)C(=O)N2CCC(CCF)CC2)cc1` 0.61

// log10 APTT lookup, key: `O=C([C@H](Cc1ccc2ccccc2c1)NS(=O)(=O)c1cnccc1N[C@H](CO)Cc1ccccc1)N1CCC(CCF)CC1` 1.41

Please report the recorded log10 APTT for `O=C([C@H](Cc1ccc(O)c(O)c1)NS(=O)(=O)c1cnccc1N[C@H](CO)Cc1ccccc1)N1CCC(CCF)CC1` . 0.79

Fill in the blank: the reported log10 APTT of `Nc1cc(C[C@H](NS(=O)(=O)c2cnccc2N[C@H](CO)Cc2ccccc2)C(=O)N2CCC(CCF)CC2)ccc1O` is ____. 0.18

I'd like to know its log10 APTT. The compound in question is `COc1ccc(C[C@H](NS(=O)(=O)c2cnccc2N[C@H](CO)Cc2ccccc2)C(=O)N2CCC(CCF)CC2)cc1` 0.90

---

# PROTOCOL SUMMARY: Effect on doubling of human clotting time assay expressed as Activated partial thromboplastin time value (APTT)
# Assay type: functional
Mark 0.0 for APTT values under 4 µM, and 1.0 for everything at or above.

Is APTT at least 4 µM? Consider `O=C([C@H](Cc1cccnc1)NS(=O)(=O)c1cnccc1N[C@H](CO)Cc1ccccc1)N1CCC(CCF)CC1` 1.0

Given `N=C(N)NCC[C@H](NS(=O)(=O)c1cnccc1N[C@H](CO)Cc1ccccc1)C(=O)N1CCC(CCF)CC1` , state whether its APTT is at least 4 µM. 0.0

Form field: APTT at least 4 µM? Entry: `O=C([C@H](Cc1ccc(O)cc1)NS(=O)(=O)c1cnccc1N[C@H](CO)Cc1ccccc1)N1CCC(CCF)CC1` 0.0

Can `O=C([C@H](Cc1ccccn1)NS(=O)(=O)c1cnccc1N[C@H](CO)Cc1ccccc1)N1CCC(CCF)CC1` be said to have APTT at or above 4 µM? 0.0

Say whether `CCNc1ccc(C[C@H](NS(=O)(=O)c2cnccc2N[C@H](CO)Cc2ccccc2)C(=O)N2CCC(CCF)CC2)cc1` shows APTT of 4 µM or more. 1.0

Quick check: does `O=C([C@H](Cc1cscn1)NS(=O)(=O)c1cnccc1N[C@H](CO)Cc1ccccc1)N1CCC(CCF)CC1` have APTT greater than or equal to 4 µM? 1.0

---

# ASSAY SYSTEM: UniProt:P00734
Kindly apply the following: yes if Ki is less than 70 nM, no in every other case.

Please indicate whether the reported Ki of `N=C(N)NCC[C@H](NS(=O)(=O)c1cnccc1N[C@H](CO)Cc1ccccc1)C(=O)N1CCC(CCF)CC1` is strictly below 70 nM. yes

is_below(Ki, 70 nM) for `O=C([C@H](Cc1ccc2c(c1)OCO2)NS(=O)(=O)c1cnccc1N[C@H](CO)Cc1ccccc1)N1CCC(CCF)CC1` ? yes

Strictly below 70 nM: is that where Ki of `CNc1ccc([C@H](NS(=O)(=O)c2cnccc2N[C@H](CO)Cc2ccccc2)C(=O)N2CCC(CCF)CC2)cc1` sits? yes

In the record for `O=C([C@H](Cc1ccccc1)NS(=O)(=O)c1cnccc1N[C@H](CO)Cc1ccccc1)N1CCC(CCF)CC1` , is Ki less than 70 nM? no

# check: Ki < 70 nM for `C[C@H](NS(=O)(=O)c1cnccc1N[C@H](CO)Cc1ccccc1)C(=O)N1CCC(CCF)CC1` no

Say whether its Ki is strictly beneath 70 nM. Entry: `CCNc1ccc(C[C@H](NS(=O)(=O)c2cnccc2N[C@H](CO)Cc2ccccc2)C(=O)N2CCC(CCF)CC2)cc1` no

Ki strictly < 70 nM for this molecule? `CC(C)[C@H](NS(=O)(=O)c1cnccc1N[C@H](CO)Cc1ccccc1)C(=O)N1CCC(CCF)CC1` no
